Assay comment: in vitro
Protocol conditions: human

| Compound | CC50 |
| --- | --- |
| COc1c(C)c2c(c(O)c1C/C=C(\C)CCC(=O)O)C(=O)OC2 [Mycophenolic acid, mycophenolic acid] | 1.78 µM |
| NC(=O)c1ncn([C@@H]2O[C@H](CO)[C@@H](O)[C@H]2O)n1 [Ribavirin, ribavirin] | > 150 µM |
| Nc1ccn([C@@H]2O[C@H](CO)[C@@H](O)[C@H]2F)c(=O)n1 [2′-dFC, 2′-deoxy-2′-fluorocytidine] | > 50 µM |
| NC(=O)c1nc(F)c[nH]c1=O [T-705, favipiravir] | > 50 µM |
